TEST_TARGET: T1, AIM2FL (Homo sapiens, UniProt O14862 1-343)
T1 sequence: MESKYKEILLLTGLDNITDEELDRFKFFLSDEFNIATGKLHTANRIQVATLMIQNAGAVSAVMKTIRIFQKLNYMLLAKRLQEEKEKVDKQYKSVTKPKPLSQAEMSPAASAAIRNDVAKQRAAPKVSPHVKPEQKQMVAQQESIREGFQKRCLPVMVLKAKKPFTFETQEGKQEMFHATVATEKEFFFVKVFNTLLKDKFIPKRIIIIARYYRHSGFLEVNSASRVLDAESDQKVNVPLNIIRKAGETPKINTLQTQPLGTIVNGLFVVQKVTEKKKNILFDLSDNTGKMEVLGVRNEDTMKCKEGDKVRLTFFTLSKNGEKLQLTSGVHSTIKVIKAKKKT
TEST_DESCRIPTION: competition fluorescence anisotropy; unlabelled competitor against 6 nM 24-bp FAM-dsDNA, 100 nM protein; 160 mM KCl (60 mM KCl for IFI16HinAB); buffer, pH and temperature not given in the available text
CONDITIONS: protein: recombinant
Some binders, each annotated with its measured IC50.
Number in nM, nothing else.

60-bp DNA:RNA hybrid (DNA:RNA) DNA: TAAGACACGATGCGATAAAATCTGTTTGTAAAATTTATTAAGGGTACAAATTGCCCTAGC RNA: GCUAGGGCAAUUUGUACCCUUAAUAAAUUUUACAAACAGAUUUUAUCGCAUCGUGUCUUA: 19.6

Query binder follows.
query: I'd like to know its IC50. The binder in question is 60-base ssDNA_A (ssDNA) DNA: AAAGAAAGAAAGAAAGAAAGAAAGAAAGAAAGAAAGAAAGAAAGAAAGAAAGAAAGAAAG
result: 58.9
